target: IRAK4 (Homo sapiens (Human), UniProt Q9NWZ3)
Sequence (Q9NWZ3 whole entry): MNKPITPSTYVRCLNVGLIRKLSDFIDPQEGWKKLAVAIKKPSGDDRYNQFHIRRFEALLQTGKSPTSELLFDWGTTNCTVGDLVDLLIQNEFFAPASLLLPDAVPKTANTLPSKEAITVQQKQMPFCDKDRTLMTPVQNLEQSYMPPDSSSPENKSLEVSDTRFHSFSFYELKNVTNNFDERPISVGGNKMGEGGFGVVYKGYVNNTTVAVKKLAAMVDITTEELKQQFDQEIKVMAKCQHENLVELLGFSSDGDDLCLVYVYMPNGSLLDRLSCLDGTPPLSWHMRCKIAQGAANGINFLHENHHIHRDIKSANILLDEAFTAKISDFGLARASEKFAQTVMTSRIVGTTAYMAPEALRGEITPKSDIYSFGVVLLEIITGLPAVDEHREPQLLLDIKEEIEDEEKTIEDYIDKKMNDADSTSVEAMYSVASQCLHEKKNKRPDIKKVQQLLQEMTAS
Reported property: log10 of IC50 (log10 of the value in nM)
Transform log10 | Measure IC50 | Unit nM

Record excerpt, results attached:
| Molecule | log10 of IC50 |
| --- | --- |
| Cc1cc(Nc2ncc(-c3nc4ccncc4s3)c(N[C@@H]3C[C@H](CO)[C@@H](O)[C@H]3O)n2)ccn1 [Example 77] | 0.90 |
| Cc1cc(Nc2ncc(-c3nc(C)cs3)c(N[C@@H]3C[C@H](C(C)(C)O)[C@@H](O)[C@H]3O)n2)cc(C)n1 [Example 133] | -0.70 |
| Cc1cc(Nc2ncc(-c3nc(-c4ccccc4)cs3)c(N[C@@H]3C[C@H](CO)[C@@H](O)[C@H]3O)n2)ccn1 [Example 79] | 0.90 |
| Cc1cc(Nc2ncc(-c3nc4cnccc4s3)c(N[C@@H]3C[C@H](CO)[C@@H](O)[C@H]3O)n2)ccn1 [Example 69] | 0.48 |
| OC[C@H]1C[C@@H](Nc2nc(Nc3cncnc3)ncc2-c2nc(-c3ccccc3)cs2)[C@H](O)[C@@H]1O [Example 81] | 1.97 |
| CO[C@@H]1[C@H](O)[C@@H](CO)C[C@H]1Nc1nc(N)ncc1-c1nc2ccccc2s1 [Example 142] | 1.83 |
| Cc1nc(Nc2cccc(C(N)=O)c2)nc(N[C@@H]2C[C@H](CO)[C@@H](O)[C@H]2O)c1-c1nc2ccccc2s1 [Example 102] | 2.15 |
| OC[C@H]1C[C@@H](Nc2nc(Nc3ccnc(F)c3)ncc2-c2nc3ccccc3s2)[C@H](O)[C@@H]1O [Example 6] | 3.41 |

Read the next record carefully.
INPUT: Endpoint output: log10 of IC50 of Cc1cc(Nc2cc(N[C@H]3C[C@@H](C(C)(C)O)[C@H](O)[C@@H]3O)c(-c3nc(C)cs3)cn2)cc(C)n1 (stereo in doubt) [Example 162] . Value?
OUTPUT: 1.57

Origin of measurements: patent US9598440B2
